# System: Escherichia coli
# METHOD: Antibacterial activity against Escherichia coli assessed as inhibition of bacterial growth by two fold serial dilution method
# Type: functional
Would you mind telling me the reported MIC of each entry?
Give the quantity in µg/mL, number only.

In: Could you tell me which MIC is on file for CCCCc1nc(Cl)c(C2NC(=O)NC(C)=C2C(=O)OCC)n1CCN1CCOCC1 (stereo unspecified) ?
Out: 128

In: Could you tell me which MIC is on file for CCCCc1nc(Cl)c(C2NC(=O)NC(C)=C2C(=O)OCC)n1S(=O)(=O)c1ccccc1 (stereo unspecified) ?
Out: 64

In: Could you tell me which MIC is on file for CCCCc1nc(Cl)c(C2NC(=O)NC(C)=C2C(=O)OCC)n1Cc1cccc(Cl)c1 (stereo unspecified) ?
Out: 64

In: Could you tell me which MIC is on file for CCCCc1nc(Cl)c(C2NC(=O)NC(C)=C2C(=O)OCC)n1S(=O)(=O)c1cccc(Br)c1 (stereo unspecified) ?
Out: 32

In: Could you tell me which MIC is on file for NC1CCN(c2c(F)cc3c(=O)c(C(=O)O)cn(C4CC4)c3c2Cl)C1 (stereo unspecified) ?
Out: 0.5

In: Could you tell me which MIC is on file for CCCCc1nc(Cl)c(C2NC(=O)NC(CN(c3nnc(C)s3)S(=O)(=O)c3ccc(N)cc3)=C2C(=O)OCC)[nH]1 (stereo unspecified) ?
Out: 128
